Values from ChEMBL document CHEMBL1157119

# tested on: hERG (KCNH2) (Homo sapiens)
# Sequence (Q12809 whole entry): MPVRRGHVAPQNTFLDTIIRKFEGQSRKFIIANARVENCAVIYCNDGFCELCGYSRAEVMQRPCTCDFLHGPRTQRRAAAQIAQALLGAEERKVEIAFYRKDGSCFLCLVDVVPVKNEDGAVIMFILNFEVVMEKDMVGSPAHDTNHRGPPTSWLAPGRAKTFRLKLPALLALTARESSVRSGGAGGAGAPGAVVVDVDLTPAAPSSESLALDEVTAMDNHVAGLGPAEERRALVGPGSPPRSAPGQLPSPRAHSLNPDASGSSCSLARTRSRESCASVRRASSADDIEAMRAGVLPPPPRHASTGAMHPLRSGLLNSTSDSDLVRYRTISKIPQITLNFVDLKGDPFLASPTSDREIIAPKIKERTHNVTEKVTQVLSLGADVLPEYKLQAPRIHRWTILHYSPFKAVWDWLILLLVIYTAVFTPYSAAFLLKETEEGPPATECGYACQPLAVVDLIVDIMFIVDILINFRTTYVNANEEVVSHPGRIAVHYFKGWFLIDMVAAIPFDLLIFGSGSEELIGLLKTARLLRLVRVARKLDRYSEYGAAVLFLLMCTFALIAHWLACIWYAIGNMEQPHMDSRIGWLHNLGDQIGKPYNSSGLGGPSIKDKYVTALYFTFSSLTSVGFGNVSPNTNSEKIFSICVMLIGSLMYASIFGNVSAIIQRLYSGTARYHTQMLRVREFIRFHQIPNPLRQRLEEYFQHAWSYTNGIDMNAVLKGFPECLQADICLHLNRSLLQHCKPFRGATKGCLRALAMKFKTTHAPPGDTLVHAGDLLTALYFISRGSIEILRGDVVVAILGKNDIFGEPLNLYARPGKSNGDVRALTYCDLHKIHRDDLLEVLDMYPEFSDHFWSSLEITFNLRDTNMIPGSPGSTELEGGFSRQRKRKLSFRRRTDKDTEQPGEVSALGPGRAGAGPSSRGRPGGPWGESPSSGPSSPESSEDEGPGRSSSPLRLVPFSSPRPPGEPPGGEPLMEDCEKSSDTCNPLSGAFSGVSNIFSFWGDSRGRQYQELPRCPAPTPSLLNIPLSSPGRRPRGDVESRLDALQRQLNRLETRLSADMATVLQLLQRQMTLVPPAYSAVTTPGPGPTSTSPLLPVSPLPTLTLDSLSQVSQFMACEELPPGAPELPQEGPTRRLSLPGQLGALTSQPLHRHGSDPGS
# experiment summary: Displacement of [3H]dofetilide from human ERG expressed in HEK293 cells at 10 uM
# Assay type: cell-based
# experimental setup: HEK293 cells that express human ERG, probe [3H]dofetilide
measurement type: inhibition at 10 µM (%)
The figure you give is taken to be in %; do not add the unit.

# input compound: Cc1nn(CCOCC(F)(F)F)c2c(Nc3ccncn3)nc(N3CCN[C@H](C)C3)nc12 ; wanted: its inhibition at 10 µM
24.7

Could you share which inhibition at 10 µM value was measured for Cc1cccc(Nc2nc(N3CCNCC3)nc3c(C)nn(CCOCC(F)(F)F)c23)n1 ?
40
